- System: HOP-92 NSCLC
- Experiment notes: NCI tumour cell line growth inhibition, 48 h; in the data active = GI50 below about 0.43 µM; inactive = the rest
Possible outcomes: 1 for active, 0 for inactive

[[record]]
mol_smiles = "CC(C)N=c1cc2n(-c3ccc(Cl)cc3)c3ccccc3nc-2cc1Nc1ccc(Cl)cc1"
assay_target = "HOP-92 NSCLC"
class = 0

[[record]]
mol_smiles = "COc1ccc(-c2ccc(/C=N/n3c(C)n[nH]c3=S)o2)c([N+](=O)[O-])c1"
assay_target = "HOP-92 NSCLC"
class = 0

[[record]]
mol_smiles = "Cc1cc(N/N=C/c2nc(-c3ccc(Br)cc3)oc2C)c2cc(Br)ccc2n1"
assay_target = "HOP-92 NSCLC"
class = 0

[[record]]
mol_smiles = "O=C(Nc1ccc(Br)cc1)c1ccc(Cl)c(Cl)c1"
assay_target = "HOP-92 NSCLC"
class = 1

[[record]]
mol_smiles = "CCn1c(CO)nn(-c2cc(O[C@@H](C)C(F)(F)F)c(C(=O)Nc3c(F)cccc3Cl)cc2F)c1=O"
assay_target = "HOP-92 NSCLC"
class = 0

[[record]]
mol_smiles = "O=C(COc1ccc(/C=C2\\CSc3ccccc3C2=O)cc1)Nc1nccs1"
assay_target = "HOP-92 NSCLC"
class = 1

[[record]]
mol_smiles = "C[C@]12CC[C@@H]3c4ccc(O)cc4CC[C@H]3[C@@H]1CC[C@@H]2NS(=O)(=O)c1cccc(F)c1"
assay_target = "HOP-92 NSCLC"
class = 0

[[record]]
mol_smiles = "CN(CCCNC(=O)Cc1ccc2ccc3cccc4ccc1c2c34)CCCNc1cc(-c2ccc3ccccc3c2)nc2ccccc12"
assay_target = "HOP-92 NSCLC"
class = 0

[[record]]
mol_smiles = "Cc1cc(S(=O)(=O)N/N=C(\\Sc2cc(Cl)c(C)cc2S(N)(=O)=O)c2ccc(Cl)cc2)c(Cl)cc1Cl"
assay_target = "HOP-92 NSCLC"
class = 0

